List of Percent Effect values.
target: Shiga toxin 2 (Escherichia coli O157:H7) (UniProt P09385+P09386); test: E. coli 0.157:H7 Shiga Toxin SOP - stx2 screening assay; type: functional; set-up: scale not given: direction of the effect not stated beside the values; details: 30 µM
Parameter measured: Percent Effect (%)

INSERT INTO measurements (compound, obs_value) VALUES
  ('Cc1cc(CC(=O)N2CCN(CC3CC3)[C@@H]3CS(=O)(=O)C[C@@H]32)ccc1F', 1.5),
  ('Cc1nn(CC(=O)N2CCCCC2Cn2cccn2)c(C)c1Cl (stereo unspecified)', -13.2),
  ('CN(Cc1ccsc1)C(=O)c1cccc(NS(C)(=O)=O)c1', -32.9),
  ('CCc1nc2n(n1)CC(NCC(=O)Nc1ccc(Cl)cn1)CC2 (stereo unspecified)', 2.33),
  ('Cc1nc(-c2ccccc2F)sc1C(=O)N1CCN(C)CC1', -0.463),
  ('CCn1ncc(CN2CCc3c(nc(-c4cccnc4)[nH]c3=O)C2)c1C', -14.2),
  ('Nc1nc(CN2CCCC(Cn3cncn3)C2)nc2ccccc12 (stereo unspecified)', -13.2),
  ('CS(=O)(=O)N1CCOCC2(CN(Cc3ccco3)CCO2)C1 (stereo unspecified)', -18.6),
  ('O=C(CN1CCC(c2cccc(F)c2)C1)NCC(F)(F)F (stereo unspecified)', 2.95),
  ('Cn1ccnc1CN1CCN(CC(O)c2ccc(F)c(F)c2)CC1 (stereo unspecified)', -1.4),
  ('CCc1nnc2n1CCN(C(=O)C(C)COCc1ccccc1)C2 (stereo unspecified)', 31.4);

###

target: Shiga toxin 2 (Escherichia coli O157:H7) (UniProt P09385+P09386); test: E. coli 0.157:H7 Shiga Toxin SOP - stx2 screening assay; type: functional; parameters: scale not given: direction of the effect not stated beside the values; conditions: 30 µM
Parameter measured: Percent Effect (%)

INSERT INTO measurements (compound, obs_value) VALUES
  ('COCC1Cn2nnc(-c3cnn(C)c3)c2CN1Cc1ccco1 (configuration not stated)', -1.07),
  ('COc1ccccc1C(=O)N1Cc2cc(C)ccc2OCC1CN(C)C (configuration not stated)', -7.43),
  ('O=C1CCCCN1Cc1cccc(NC(=O)N2CCSCC2)c1', -1.06),
  ('CCC1=N[C@@]2(CC[C@@H]3CN(S(=O)(=O)CC(C)C)C[C@@H]32)C(=O)N1C', -1.16),
  ('O=C(c1ccccc1-c1ccccc1)N1CCOC2(CNCCOC2)C1 (configuration not stated)', -1.85),
  ('CC1(C)CC(N(Cc2ccccc2)Cc2cccnc2)CC(C)(C)N1', -6.83),
  ('CN(C)c1cncc(C2CCN(CCO)CC2)n1', -4.99),
  ('c1ccc2oc(CCCN3CCCC3Cn3cncn3)nc2c1 (configuration not stated)', 7.93),
  ('CCNC(=O)c1nnn(Cc2ccccc2)c1OC', -14.9),
  ('COCCNS(=O)(=O)c1cccc2c1CN(C(=O)c1ccccc1)CC2', -27.5),
  ('O=C(NCCN1CCCCC1)c1scnc1Cl', 30.3),
  ('CC(CNC(=O)N1CCSCC1)Cc1cccs1 (configuration not stated)', 6.01);

###

List of Percent Effect values.
target: Shiga toxin 2 (Escherichia coli O157:H7) (UniProt P09385+P09386); test: E. coli 0.157:H7 Shiga Toxin SOP - stx2 screening assay; type: functional; design: scale not given: direction of the effect not stated beside the values; settings: 30 µM
Parameter measured: Percent Effect (%)

INSERT INTO assay_data (compound, reading_unit, obs_value) VALUES
  ('CC(=O)NCC(=O)N1CCC2(CC1)CN(c1cccnc1)C(=O)CO2', '%', -4.09),
  ('O=C(c1ccsc1)N1CCc2c(CNc3ncccn3)n[nH]c2C1', '%', -33.5),
  ('COc1cc(C(=O)NS(=O)(=O)c2cccc(C#N)c2)cc(Cl)c1OC', '%', 3.59),
  ('COc1ccc(OCc2nc(C(=O)N3CC(O)C3)co2)cc1', '%', -45.4),
  ('CNC(=O)[C@@]12CCCN(c3ncccn3)[C@@H]1CN(C(=O)NC(C)C)C2', '%', -25.1),
  ('CCn1nc(C)c2nc(C(C)C)nc(N3CCCCC3)c21', '%', -36.2),
  ('CN(C)CCNC(=O)c1cc(-c2cnc(N3CCCC3)nc2)cn1C', '%', -17.7),
  ('CC[C@@]1(O)CCN(C(=O)c2ccsc2)C[C@H]1O', '%', -16.9),
  ('CC(Nc1cccc(CN2CCOC2=O)c1)C(=O)N1CCNC1=O (configuration not stated)', '%', -28.6),
  ('CCOc1ccccc1Nc1nc2c(C)nn(C)c2c(=O)n1C', '%', -24.7),
  ('Cc1ccc(CNC(=O)CCSCc2csc(C)n2)cn1', '%', -2.37),
  ('CCn1ncc2c1CCCC2NCc1cc(Cl)c(OC)c(OC)c1 (configuration not stated)', '%', 1.68),
  ('Cc1cc(OCC(=O)NC(C)c2ccc(N3CCOCC3)cc2)no1 (configuration not stated)', '%', -21.7),
  ('CC(C)NC(=O)COc1nc(C(C)(C)C)no1', '%', 2.21),
  ('COc1ccc(-c2cc(C3CCCCCN3S(=O)(=O)N(C)C)on2)cc1 (configuration not stated)', '%', -17.1),
  ('Cc1ccc(-c2nc(CN3CCN(S(=O)(=O)N(C)C)CC3)cs2)o1', '%', -12.2),
  ('OCC1CCCN1c1cc(N2CCc3ccccc3C2)ncn1 (configuration not stated)', '%', -49.8),
  ('CCNC(=O)c1ccnc(NCC2COc3cc(OC)ccc3C2)c1 (configuration not stated)', '%', -9.33),
  ('Cc1noc(C)c1CC(=O)OCC(=O)N1CCc2sccc2C1', '%', -7.79),
  ('COc1ccccc1CNC(=O)C1=NN(c2ccc(C)cc2)C(=O)CN1', '%', 11),
  ('CSc1ncc(C(=O)N2C[C@H]3CC[C@@H]2CN(Cc2ccccc2)C3)cn1', '%', -17.1),
  ('COc1ccc(-c2nnc(SCC(=O)NCC(C)C)[nH]2)c(OC)c1', '%', 6.1),
  ('CCCNC(=O)c1cc2c([nH]c1=O)CC(c1cccs1)CC2=O (configuration not stated)', '%', -20.3),
  ('c1ccc(-c2nnc(CNCCn3cccn3)o2)cc1', '%', 0.764),
  ('COc1ccccc1CC(=O)N1CCC(NCc2c[nH]nc2C)CC1', '%', 17.4),
  ('FC1(F)CCN(Cc2cccnc2)CC12CCN(c1ccccn1)C2 (configuration not stated)', '%', 4.74),
  ('CNS(=O)(=O)c1cccc(C(C)NCc2ccccc2)c1 (configuration not stated)', '%', -14.4),
  ('Cc1ccc(Oc2ccc(NC(=O)NCC3CCOC3)cn2)cc1C (configuration not stated)', '%', -6.2),
  ('Cc1ccc(F)cc1S(=O)(=O)N(C)CC(N)=O', '%', -5.32),
  ('CCOC1COC2(CCN(S(=O)(=O)c3cccc(F)c3)CC2)C1 (configuration not stated)', '%', -13),
  ('O=C(c1cc[nH]n1)N1CCC(Nc2cccnn2)CC1', '%', -20.2),
  ('Cc1nc(CNC(=O)NCC(O)c2ccc(F)cc2F)cs1 (configuration not stated)', '%', -21.6),
  ('CN(C)S(=O)(=O)N1C[C@@H](Oc2ccccn2)[C@H]2OCCC[C@H]21', '%', -15.9),
  ('Cc1noc(C)c1CN1CC[C@H]2OCC[C@@]2(C(=O)N2CCCO2)C1', '%', -3.97),
  ('CS(=O)(=O)NCC1CCCN(C(=O)COCc2ccccc2)C1 (configuration not stated)', '%', -16.5),
  ('Cc1cc(CC(=O)N(CC2CN(C)CCO2)c2nccs2)no1 (configuration not stated)', '%', -18.7),
  ('CC(C(=O)N1CCCN(c2ncccc2C#N)CC1)n1cccn1 (configuration not stated)', '%', 31.7),
  ('N#Cc1cccc(S(=O)(=O)NC(=O)COc2ccc3c(c2)CCC3)c1', '%', 8.82),
  ('Cc1noc(Cl)c1CCC(=O)N1CCC(CC(N)=O)CC1', '%', 17.9),
  ('c1ccc(Cn2ccnc2CN2CCOC(Cn3cccn3)C2)cc1 (configuration not stated)', '%', 8.78),
  ('O=C(CN(Cc1ccccc1)CC1CCOCC1)Nc1nccs1', '%', -19),
  ('O=C1CCC2(CCN(c3ncc(F)cn3)CC2)N1CCN1CCCC1', '%', -1.87),
  ('Cc1ccc(Cl)cc1N1CCC(CNC(=O)CC(F)(F)F)C1 (configuration not stated)', '%', -45.5),
  ('Cc1cc(C)n(CC2CCCN2C(=O)c2c[nH]c3ncccc23)n1 (configuration not stated)', '%', 26.8),
  ('Cc1nc(CC(=O)N2CCC[C@H]2c2nc(C(C)C)no2)cs1', '%', 4.58),
  ('O=C(Cc1cccc(F)c1)NCCNCc1ccco1', '%', 3.74),
  ('Cc1ccoc1C(=O)N1CC[C@H]2O[C@@H](C)C[C@H]2C1', '%', -17.1);

These data points were gathered from ChEMBL document CHEMBL3988442.
